This section presents binders with their documented SPOT peptide array binding signal intensity values.
target: SpAbp1-D1; experiment: SPOT peptide array binding signal intensity (averaged, normalized) (arbitrary units (background-subtracted, floor 0; scale differs between SH3 domains)); higher = stronger binding of the SH3 domain to the peptide
Please reply with the value in numeric form only.

Examples from the recorded data:
{"columns": ["Binder", "Quantitative result"],
 "data": [
  ["RVTRKRPREPKSTND", 345],
  ["KRRAPPPVPKKPSSR", 6350],
  ["VQKRKLPLPGSIASA", 174]
]}

Suppose we examine the binder `RRGPAPPPPPRASRP` ; what SPOT peptide array binding signal intensity value has been reported?
726

Suppose we examine the binder `PSRRDSLSIPRAVDA` ; what SPOT peptide array binding signal intensity value has been reported?
8
